- tgt: MucR (Brucella abortus 2308, UniProt Q2YMR3 1-142)
- protocol text: EMSA
- test conditions: protein: recombinant; chain copies: 10; blunt

# binder, binding result
records = [
    ("Seq1.2 (dsDNA) DNA 1: CCACTGACCGCGTCGCGTCA DNA 2: TGACGCGACGCGGTCAGTGG", "no binding"),
    ("Seq1.1 (dsDNA) DNA 1: CCACGTCCCTAGTCGCGTCA DNA 2: TGACGCGACTAGGGACGTGG", "no binding"),
    ("Seq3.1 (dsDNA) DNA 1: ATTGACGCCCTAATAAGCTA DNA 2: TAGCTTATTAGGGCGTCAAT", "no binding"),
    ("Seq3.2 (dsDNA) DNA 1: ATTGACTAAAGCCGAAGCTA DNA 2: TAGCTTCGGCTTTAGTCAAT", "no binding"),
    ("Exoy43bp (dsDNA) DNA 1: CCACTGAAATAGTCGCGTCATGAATTGACTAAATAATAAGCTA DNA 2: TAGCTTATTATTTAGTCAATTCATGACGCGACTATTTCAGTGG", "binds"),
]
